- protocolText: label from the status in PepcDB records

- biosequence: "LRARTYGEGGFRVERVLEERPAFTRVQFSYLSDGLRVHGFANLPKGRGPFPVVVVLHGYVEPSRYRLLAYTTPYADFLAERGYLVLHPNFRGHPPSEGAPAQGLRHVYAVDVLNLLAEVRRGAFPQADPAR"
  protein production: "failed"
- biosequence: "KVIIAIDAGHGGQDPGAIGPNGTKEKNVTIAIARKLRALLNADPQFKPVLTRDGDYFISVMGRSEVARKQNANFLVSIHADAAPNRDATGASVWVLSNRRANSEMAGWLEQHEKQSELLGGAGDVLANSQADPYLSQAVLDLQFGHSQRVGYDVATNVLSQLQRIGNLHKRRPEHASLGVLRSPDIPSILVETGFISNNGEERLLGSDDYQEQIAEAIYNGLRNYFMQHPLQSAPRGEAAQTASAAAPGGMLIN"
  protein production: "failed"

Where these numbers come from: a protein production outcome set (Wang et al. 2014)
